Below, each of the compounds is paired with its reported collision cross section value.
# protocol.notes: collision cross section (TIMS, N2 drift gas) of the primary ion; higher = larger gas-phase ion size
# protocol.conditions: ionization mode: ESI+; ion species: [M+H]+
Field: numeric (Å²). Do not append units.

Use the examples below as a reference point.
INSERT INTO results (compound, readout_label, test_value) VALUES
  ('CC(C)Oc1cccc(NC(=O)c2ccccc2C(F)(F)F)c1 [Flutolanil]', 'collision cross section', 173.43),
  ('Cn1c(=O)c2c(ncn2C)n(C)c1=O [Caffeine]', 'collision cross section', 139.07),
  ('COc1cc2ccc(=O)oc2c(O)c1OC [Fraxidin]', 'collision cross section', 143.3),
  ('COCC(C)N(C(=O)CCl)c1c(C)csc1C (stereo not given) [Dimethenamid]', 'collision cross section', 155.6),
  ('C#CC(C)(C)NC(=O)c1cc(Cl)cc(Cl)c1 [Propyzamide]', 'collision cross section', 158.35),
  ('Cc1c(C(C)C)c(=O)n(-c2ccccc2)n1C [Propyphenazone]', 'collision cross section', 153.65),
  ('CON(C)C(=O)Nc1ccc(Cl)c(Cl)c1 [Linuron]', 'collision cross section', 152.6),
  ('Nc1ccc(S(=O)(=O)Nc2nccs2)cc1 [Sulfathiazole]', 'collision cross section', 153.27),
  ('CCCCCCCC/C=C\CCCCCCCC(N)=O [Oleic acid amide]', 'collision cross section', 177.48),
  ('C[C@]12CCC(=O)C=C1CC[C@@H]1[C@@H]2[C@@H](O)C[C@]2(C=O)[C@@H](C(=O)CO)CC[C@@H]12 [Aldosterone]', 'collision cross section', 204.03);

What value of collision cross section has been recorded for this entry: CCCCOC(=O)c1ccccc1C(=O)OCc1ccccc1 [Benzylbutylphthalate]
178.47

What value of collision cross section has been recorded for this entry: CCOC1Oc2ccc(OS(C)(=O)=O)cc2C1(C)C (stereo not given) [Ethofumesate]
166.62

What value of collision cross section has been recorded for this entry: CC12CCC(=O)C=C1C=CC1[C@@H]2CCC2(C)[C@H]1CCC21CCC(=O)O1 (stereo not given in full) [Canrenone]
186.86

What value of collision cross section has been recorded for this entry: CCCc1nc(C)c2c(=O)nc(-c3cc(S(=O)(=O)N4CCN(CC)CC4)ccc3OCC)[nH]n12 [Vardenafil]
227.75

What value of collision cross section has been recorded for this entry: CC1=NNC(=O)N(/N=C/c2cccnc2)C1 [Pymetrozine]
153.68

What value of collision cross section has been recorded for this entry: CC(CCl)OP(=O)(OC(C)CCl)OC(C)CCl (stereo not given) [Tris(1-chloro-2-propyl)phosphate]
162.58

What value of collision cross section has been recorded for this entry: CCC(=O)Nc1ccc(Cl)c(Cl)c1 [Propanil]
146.71

What value of collision cross section has been recorded for this entry: COc1cccc([C@@]2(O)CCCC[C@@H]2CN(C)C)c1 [Tramadol]
160.98

What value of collision cross section has been recorded for this entry: COP(=S)(OC)Oc1ccc(SC)c(C)c1 [Fenthion]
160.76

What value of collision cross section has been recorded for this entry: `Cc1cccc(C)c1NC(=O)CS(=O)(=O)O`
152.57

====

# protocol.notes: reversed-phase LC retention time (C18, 15 min MeOH gradient); higher = more hydrophobic / later elution
# protocol.conditions: ionization mode: ESI+; ion species: [M+H]+
Below, each of the compounds is paired with its reported reversed-phase LC retention time value.
Field: numeric (min). Do not append units.

Use the examples below as a reference point.
INSERT INTO assay_data (compound, readout_label, test_value) VALUES
  ('CCCCCCCCn1sccc1=O', 'reversed-phase LC retention time', 14.9),
  ('CC(C)C1(C)N=C(c2ncccc2C(=O)O)NC1=O (stereo unspecified)', 'reversed-phase LC retention time', 8.78),
  ('NC(=O)N1c2ccccc2CC(=O)c2ccccc21 [Oxcarbazepine]', 'reversed-phase LC retention time', 10.7);

// next item, reversed-phase LC retention time requested
What value of reversed-phase LC retention time has been recorded for this entry: `CC(=O)[C@H]1CC[C@H]2[C@@H]3C=CC4=CC(=O)CC[C@@]4(C)[C@@H]3CC[C@]12C`
15.1
